The reported measurements were obtained from the supplement of paper PMC8967900.

System: COG-LL-317;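 note: ALL cell lines in 384-well plates, five doses spanning 10,000-fold, each plate scaled between vehicle and 100 µmol/L benzalkonium chloride controls, sDSS an adapted area-under-curve metric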
Assay: selective drug sensitivity score (sDSS, relative to normal bone marrow) (sDSS (score)); higher = more potent and effective on the cell line relative to normal bone marrow cells
Settings: 72 h
The following compounds are shown together with reported selective drug sensitivity score values.
Answer with a bare number; do not write a unit.

Worked examples follow.
compound	selective drug sensitivity score
CCN(CC)CCOc1ccc(/C(=C(/Cl)c2ccccc2)c2ccccc2)cc1 [Clomifene] (top concentration 10000 nM)	0.22
Cc1cccc(-c2[nH]c(CNc3ccccc3F)nc2-c2ccc3ncnn3c2)n1 [Vactosertib (TEW-7197)] (top concentration 2500 nM)	-0.3

selective drug sensitivity score in this record for Cc1cc(Nc2cc(N3CCN(C)CC3)nc(/C=C/c3ccccc3)n2)n[nH]1 [ENMD-2076] (top concentration 10000 nM) : 5.14
